Reference source for all entries: patent US20220402867A1

Target: RORγt (RORγ-LBD chimeric receptor) (Homo sapiens)
Construct: host or cells: HEK293T
Sequence (P51449 269-508 limits assumed, change not shown): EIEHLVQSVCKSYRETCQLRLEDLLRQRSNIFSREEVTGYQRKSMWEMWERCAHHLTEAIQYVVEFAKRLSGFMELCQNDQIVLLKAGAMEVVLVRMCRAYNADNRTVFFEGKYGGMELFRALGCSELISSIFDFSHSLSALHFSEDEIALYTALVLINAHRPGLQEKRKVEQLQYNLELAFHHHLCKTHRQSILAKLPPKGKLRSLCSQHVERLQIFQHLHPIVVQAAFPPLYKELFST
Experiment: Luciferase reporter gene assay of RORγt agonistic activity in HEK293T cells
Format: cell-based
Below, each entry is listed alongside its reported EC50.

CS(=O)(=O)c1ccc(-c2c(Cl)cc(NC(=O)Cc3ccc(S(=O)(=O)CCO)cc3)cc2Cl)cc1    0.225 µM

Note: attention shifts to another entry.
The reported EC50 value, RORγt (RORγ-LBD chimeric receptor) (Homo sapiens), for CS(=O)(=O)c1ccc(-c2c(Cl)cc(NC(=O)Cc3ccc(S(=O)(=O)CC4CC4)cc3)cc2Cl)cc1 reads 0.025 µM

###

Target: GST-RORγ LBD (263-509) (Homo sapiens)
Construct: GST-RORγ LBD ((263-509) (produced at ChemPartner))
Sequence (P51449 263-509): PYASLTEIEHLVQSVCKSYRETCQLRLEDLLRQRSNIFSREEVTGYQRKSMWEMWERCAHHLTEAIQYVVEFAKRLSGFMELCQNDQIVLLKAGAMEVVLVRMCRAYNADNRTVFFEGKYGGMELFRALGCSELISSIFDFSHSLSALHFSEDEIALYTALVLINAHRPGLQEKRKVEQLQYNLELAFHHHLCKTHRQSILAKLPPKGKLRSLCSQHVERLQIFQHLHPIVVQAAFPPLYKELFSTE
Assay: TR-FRET assay of agonistic activity on RORγ receptor
Format: biochemical
Details: maximum activation rate, TOP of fitted curve
Below, each entry is listed alongside its reported Emax.
Quick note: unit goes after the number.

Examples with answers:
CCS(=O)(=O)c1ccc(-c2c(Cl)cc(NC(=O)C(COC)c3ccc(S(=O)(=O)CC)cc3)cc2Cl)cc1 (centres unmarked) [Example 13]    171%
CCS(=O)(=O)c1ccc(-c2c(Cl)cc(NC(=O)Cc3ccc(S(C)(=O)=O)cn3)cc2Cl)cc1 [Example 9]    160%
CS(=O)(=O)c1ccc(CC(=O)Nc2cc(Cl)c(-c3ccc(S(C)(=O)=O)cc3)c(Cl)c2)cc1 [Example 7]    169%
CCS(=O)(=O)c1ccc(CC(=O)Nc2cc(Cl)c(-c3ccc(S(=O)(=O)C4CC4)cc3)c(Cl)c2)cc1 [Example 6]    171%

Note: attention shifts to another entry.
Measured Emax of CS(=O)(=O)c1ccc(C(CO)C(=O)Nc2cc(Cl)c(-c3ccc(S(=O)(=O)C4CC4)cc3)c(Cl)c2)cc1 (single isomer, unassigned) [Example 36] : 200%

###

Experiment: Metabolic stability in human liver microsomes
Assay type: in vitro ADME
Respond with 1 (yes) for half-life values of 1 h and above, 0 (no) for values below.

CCS(=O)(=O)c1ccc(CC(=O)Nc2cc(Cl)c(-c3ccc(S(=O)(=O)C(C)C)cc3)c(Cl)c2)cc1    0 (no)
CCS(=O)(=O)c1ccc(C(COC)C(=O)Nc2cc(Cl)c(-c3ccc(S(=O)(=O)C4CC4)cc3)c(Cl)c2)cc1 (stereo not drawn) [Example 16]    1 (yes)
CC(C)Cc1ccc(-c2c(Cl)cc(NC(=O)Cc3ccc(S(C)(=O)=O)cc3)cc2Cl)cc1C#N [LIT-00093, reference compound]    0 (no)
CCS(=O)(=O)c1ccc(CC(=O)Nc2cc(Cl)c(-c3ccc(S(=O)(=O)C4CC4)cc3)c(Cl)c2)cc1    1 (yes)

Is half-life for CS(=O)(=O)c1ccc(CC(=O)Nc2cc(Cl)c(-c3ccc(S(C)(=O)=O)cc3)c(Cl)c2)cc1 at or above 1 h?
1 (yes)

###

Assay: Pharmacokinetic (PK) assay in mice
Assay type: in vivo
Settings: mouse, plasma; IV 1 mg/kg, CD-1 mice; values marked *; read-out: Vss
Below, each entry is listed alongside its reported Vd.
The figure you give is taken to be in L/kg; do not add the unit.

Examples with answers:
CCS(=O)(=O)c1ccc(CC(=O)Nc2cc(Cl)c(-c3ccc(S(=O)(=O)C4CC4)cc3)c(Cl)c2)nc1    1.45
CCS(=O)(=O)c1ccc(C(CO)C(=O)Nc2cc(Cl)c(-c3ccc(S(=O)(=O)C4CC4)cc3)c(Cl)c2)cc1 (single isomer, unassigned)    1.53
CCS(=O)(=O)c1ccc(C(COC)C(=O)Nc2cc(Cl)c(-c3ccc(S(C)(=O)=O)cc3)c(Cl)c2)cc1 (stereo not shown)    0.71
COCC(C(=O)Nc1cc(Cl)c(-c2ccc(S(=O)(=O)C3CC3)cc2)c(Cl)c1)c1ccc(S(C)(=O)=O)cc1 (stereo not shown)    0.75
CCS(=O)(=O)c1ccc(-c2c(Cl)cc(NC(=O)C(COC)c3ccc(S(C)(=O)=O)cc3)cc2Cl)cc1 (stereo not shown)    1.09

Measured Vd of COC[C@H](C(=O)Nc1cc(Cl)c(-c2ccc(S(=O)(=O)C3CC3)cc2)c(Cl)c1)c1ccc(S(C)(=O)=O)cc1 (single isomer, unassigned) : 0.83

Measured Vd of COCC(C(=O)Nc1ccc(-c2ccc(S(=O)(=O)C3CC3)cc2)c(C(F)(F)F)c1)c1ccc(S(C)(=O)=O)cc1 (single isomer, unassigned) : 1.38

Measured Vd of CCS(=O)(=O)c1ccc(C(COC)C(=O)Nc2cc(Cl)c(-c3ccc(S(=O)(=O)C4CC4)cc3)c(Cl)c2)cc1 (stereo not shown) [Example 16] : 1.1

Measured Vd of CS(=O)(=O)c1ccc(C(CO)C(=O)Nc2cc(Cl)c(-c3ccc(S(=O)(=O)C4CC4)cc3)c(Cl)c2)cc1 (single isomer, unassigned) : 1.27

Measured Vd of CCS(=O)(=O)c1ccc(C(COC)C(=O)Nc2cc(Cl)c(-c3ccc(S(=O)(=O)C4CC4)cc3)c(Cl)c2)cc1 (single isomer, unassigned) [Example 41] : 2.02
